Experiment: chemical genetic growth profiling, strain panel (AID 1159580);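 note: tested at 20 µM; growth read once vehicle control cultures reached saturation at 30 °C; 1 = growth at the plate median or of vehicle wells; lower values mean less growth of the strain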
Details: S. cerevisiae deletion strains, growth OD, locus YLR258W, strain gsy2, stronger effect = lower value
The whole screen tested about 5,500 compounds, of which about 2,000 (36%) were called active. About 18% were inconclusive and are not listed. The list shows a part of the results.
READOUT_KIND: normalized growth
API doc: respond with a numeric literal and nothing else, no unit.

Query: Give the measured normalized growth of "COc1ccc(/C=C/c2cc(O)cc(O)c2)cc1" .
Reply: 0.996

Query: Field entry: CC(=O)O[C@H]1CC[C@@]2(C)C(=CCC3C2CC[C@@]2(C)C3CC[C@@H]2C(C)CCCC(C)C)C1 (some centres not stated)
Reply: 1.01

Query: Field entry: "CCOC(N)=O"
Reply: 0.99

Query: Field entry: "O=C(O)c1ccc2c(c1)OCO2"
Reply: 1

Query: Field entry: "C[C@](N)(Cc1ccc(O)c(O)c1)C(=O)O"
Reply: 0.959

Query: Field entry: "COc1ccc(-c2cc(C(F)F)nn2-c2ccc(S(N)(=O)=O)cc2)cc1F"
Reply: 1.01

Query: Field entry: "NCCCCN=C(N)N"
Reply: 1.02

Query: Field entry: CC12CCC3C(CC=C4CC(O)CCC43C)C1CCC2=O (configuration not stated)
Reply: 0.939

Query: Field entry: Nc1c(Br)cc(Br)cc1CNC1CCC(O)CC1 (configuration not stated)
Reply: 1

Query: Field entry: CC(Cc1ccc(O)c(O)c1)(NN)C(=O)O (configuration not stated)
Reply: 0.999

Query: Field entry: CC(=O)O[C@H]1CC[C@@]2(C)C(=CCC3C2CC[C@]2(C)C(=O)CCC32)C1 (some centres not stated)
Reply: 0.952

Query: Field entry: C=CCN1CC[C@]23c4c5ccc(O)c4OC2C(=O)CC[C@@]3(O)[C@H]1C5 (some centres not stated)
Reply: 0.983

====

Assay: chemical genetic growth profiling, strain panel (AID 1159580);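 note: tested at 20 µM; growth read once vehicle control cultures reached saturation at 30 °C; 1 = growth at the plate median or of vehicle wells; lower values mean less growth of the strain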
Conditions: S. cerevisiae deletion strains, growth OD, locus YKL068W
The campaign covered roughly 5,500 compounds. About 2,000 (36%) were called active. Another 18% or so got no clear call; they are omitted. Cut-off read from the data, not from the text of the source: active = normalized growth mostly below about 0.91 (no sharp cut-off); inconclusive = no clear call, values can overlap the other calls; inactive = mostly above about 0.92. The list shows a part of the results.
Mark one answer only. Choices: active, inactive

Check out these entries, answers already filled in.
{"COMPOUND": "O=C(O)c1cc(=O)c(O)c2c(O)c(O)ccc2c1", "QUALITATIVE_LABEL": "inactive"}
{"COMPOUND": "OC/C=C/c1ccc(O)c(O)c1", "QUALITATIVE_LABEL": "inactive"}

Now turn to the next compound.
Query: Lab log entry: CCCNC(C)C(=O)Nc1ccccc1C (stereo not drawn) — outcome as called in the assay?
Reply: inactive

====

Experiment: chemical genetic growth profiling, strain panel (AID 1159580);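 note: tested at 20 µM; growth read once vehicle control cultures reached saturation at 30 °C; 1 = growth at the plate median or of vehicle wells; lower values mean less growth of the strain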
Details: S. cerevisiae deletion strains, growth OD, locus YGL086W, strain mad1, stronger effect = lower value
In all, about 5,500 compounds went through this assay and about 2,000 (36%) were called active. Inconclusive results (about 18%) are left out. This is one part of the list.
Below, each entry is listed alongside its reported normalized growth.
API doc: respond with a numeric literal and nothing else, no unit.

{"COMPOUND": "COc1ccc2c(c1O)-c1c(OC)c(OC)cc3c1[C@H](C2)N(C)CC3", "READOUT_KIND": "normalized growth", "REPORTED_RESULT": 1.04}

Query: Give the measured normalized growth of "CCOC(N)=O" .
Reply: 1.01

Query: Field entry: COc1cc2c(cc1O)CC1c3c(cc(O)c(OC)c3-2)CCN1C (stereo not given)
Reply: 0.978

Query: Field entry: "OC/C=C/c1ccc(O)c(O)c1"
Reply: 0.937

Query: Field entry: "O=c1ccn([C@@H]2O[C@H](COP(=O)(O)OP(=O)(O)OP(=O)(O)O)[C@@H](O)[C@H]2O)c(=O)[nH]1"
Reply: 0.996

Query: Field entry: "COC(=O)[C@H]1[C@H]2C[C@@H]3c4[nH]c5cc(OC)ccc5c4CCN3C[C@H]2C[C@@H](OC(=O)c2cc(OC)c(OC)c(OC)c2)[C@@H]1OC"
Reply: 0.998

Query: Field entry: NC(=O)c1cc[n+](CC2=C(C(=O)O)N3C(=O)C(NC(=O)C(c4ccccc4)S(=O)(=O)[O-])C3SC2)cc1 (stereo not given)
Reply: 0.978

Query: Field entry: "Oc1ccc(/C=C/c2cc(O)cc(O)c2)cc1"
Reply: 0.897

Query: Field entry: "COc1ccc(/C=C/C(=O)O)cc1OC"
Reply: 1.01

Query: Field entry: CN1CCc2cccc3c2C1Cc1ccc(O)c(O)c1-3 (stereo not given)
Reply: 1
